# Solubility at pH value 2.2 per entry
Measurement Description: Aqueous solubility (buffer vs acetonitrile/water, LC-UV)
Format: physicochemical
Experimental Conditions: pH 2.2
Value expressed in μg/mL; do not type the unit.

COc1cc(F)c(-c2ccc(F)c(CNc3ccc([C@H]4C[C@@H]4C(=O)O)nc3)c2)c(F)c1 [Example 40] ... 62
Cc1cc(OCC2CCOCC2)cc(C)c1-c1ccc(F)c(CNc2ccc([C@H]3C[C@@H]3C(=O)O)nc2)c1 [Example 44] ... 66

GET /values?readout=Solubility at pH value 2.2&item= Cc1cc(OCC(=O)O)cc(C)c1-c1ccc(F)c(CNc2ccc([C@H]3C[C@@H]3C(=O)O)nc2)c1 [Example 14] 71
